Data provenance: PubChem BioAssay AID1259407

test system: CCRIS mutagenicity, Ames/micronucleus/aberration tests; experiment: CCRIS mutagenicity studies; conditions: Test System: AMES SALMONELLA TYPHIMURIUM; Strain/Indicator: TA97; Metabolic Activation: NONE; Method: PREINCUBATION
Activity calls are given as the source filed them. The rule behind the calls is not given here.
Your answer must be one of the following: active, inactive

Solved cases (2 shown):
{"COMPOUND": "CCc1ccccc1O", "CATEGORY_LABEL": "inactive"}
{"COMPOUND": "Cc1ccc(N)cc1O", "CATEGORY_LABEL": "inactive"}

Recorded test outcome, item "COc1ccc(C(=O)/C(Br)=C\C(=O)O)cc1"
active

Recorded test outcome, item "Oc1ccc2ccccc2c1N=Nc1ccccc1"
inactive

Recorded test outcome, item "CCCC(=O)O"
inactive

Recorded test outcome, item "Nc1ccc(Sc2ccc(N)cc2)cc1"
inactive

Recorded test outcome, item "CNc1ccccc1"
inactive

Recorded test outcome, item "ClCC(Cl)CCl"
inactive

Recorded test outcome, item "CCN(CC)c1cccc(O)c1"
inactive

Recorded test outcome, item "OCc1ccccc1"
inactive

Recorded test outcome, item "CCN(C(=O)N(CC)c1ccccc1)c1ccccc1"
inactive

Recorded test outcome, item "CC(=O)Nc1ccccc1"
inactive

Recorded test outcome, item "O=c1[nH]c(=O)n([C@H]2C[C@H](O)[C@@H](CO)O2)cc1/C=C/Br"
inactive

Recorded test outcome, item C=CC(C)C#N (stereo not drawn)
inactive

Recorded test outcome, item "O=C1C=CC(=O)c2c(O)ccc(O)c21"
active

###

tested on: CCRIS mutagenicity, Ames/micronucleus/aberration tests; assay: CCRIS mutagenicity studies; conditions: Test System: AMES SALMONELLA TYPHIMURIUM; Strain/Indicator: TA98; Metabolic Activation: RAT, LIVER, S-9, AROCLOR 1254; Method: STANDARD PLATE
Active and inactive are the calls of the source. The rule behind the calls is not given here. Where a SMILES comes first, the peptide text is derived from it. The star is where a group is joined. For = O=C*
Your answer must be one of the following: active, inactive

Solved cases (5 shown):
{"COMPOUND": "COS(C)(=O)=O", "CATEGORY_LABEL": "inactive"}
{"COMPOUND": "CSCC[C@H](NC=O)C(=O)N[C@@H](Cc1ccccc1)C(=O)O (For-Met-Phe-OH)", "CATEGORY_LABEL": "inactive"}
{"COMPOUND": "Nc1ccc(/C=C/c2ccc(Cl)cc2)cc1", "CATEGORY_LABEL": "active"}
{"COMPOUND": "COc1cccc2c1C(=O)c1c(O)c3c(c(O)c1C2=O)C[C@@](O)(C(C)=O)C[C@@H]3O", "CATEGORY_LABEL": "active"}
{"COMPOUND": "CC1=CC(=C(C#N)C#N)C=C(C=Cc2ccc(N(C)C)cc2)O1", "CATEGORY_LABEL": "active"}

Next item in the queue.
Recorded test outcome, item "O=c1oc2cc(O)ccc2c2oc3cc(O)ccc3c12"
inactive

###

test system: CCRIS mutagenicity, Ames/micronucleus/aberration tests; assay: CCRIS mutagenicity studies; conditions: Test System: AMES SALMONELLA TYPHIMURIUM; Strain/Indicator: TA100; Metabolic Activation: RAT, LIVER, S-9, AROCLOR 1254; Method: STANDARD PLATE
The source made the active and inactive calls. The rule behind the calls is not given here.
Your answer must be one of the following: 1 (active), -1 (inactive)

Solved cases (4 shown):
{"COMPOUND": "C[C@]12CC[C@H](OC(=O)COc3ccc(N(CCCl)CCCl)cc3)C[C@@H]1CC[C@@H]1[C@@H]2CC[C@]2(C)NC(=O)CC[C@@H]12", "CATEGORY_LABEL": 1}
{"COMPOUND": "C=CC(=C)CCC=C(C)C", "CATEGORY_LABEL": -1}
{"COMPOUND": "O=C(/C=C/c1ccc(-c2ccccc2)cc1)c1ccccc1", "CATEGORY_LABEL": -1}
{"COMPOUND": "CC(S)C(=O)NCC(=O)O (configuration not stated)", "CATEGORY_LABEL": -1}

Recorded test outcome, item C=CCc1ccccc1OCC(O)CNC(C)C (configuration not stated)
-1

Recorded test outcome, item "CCN(CC)c1ccc(N=Nc2ccc([N+](=O)[O-])cc2C#N)cc1"
1

Recorded test outcome, item CCCCC(CC)COC(=O)c1ccc(C(=O)O)cc1 (configuration not stated)
-1

Recorded test outcome, item "Cc1cccc2c1ccc1cc(C(C)C)ccc12"
-1

Recorded test outcome, item "NCCc1cnc[nH]1"
-1

Recorded test outcome, item "CCC(=O)n1ncc(Cl)c(Cl)c1=O"
-1

Recorded test outcome, item Cc1ccc(C(C)(C)C)c(O)c1C(O)c1ncc([N+](=O)[O-])n1C (configuration not stated)
-1

###

system: CCRIS mutagenicity, Ames/micronucleus/aberration tests; test: CCRIS mutagenicity studies; details: Test System: AMES SALMONELLA TYPHIMURIUM; Strain/Indicator: TA100; Metabolic Activation: RAT, LIVER, S-9, AROCLOR 1254 (10%); Method: PREINCUBATION
Calls of active or inactive are those of the source. No rule for the calls is given here.
ENDPOINT_LABEL: mutagenic call

Please review the entries below; each comes with its answer.
{"COMPOUND": "CC(=O)/C=C/c1ccco1", "mutagenic call": "inactive; negative"}
{"COMPOUND": "B#B", "mutagenic call": "inactive; negative"}
{"COMPOUND": "CCC(C)c1ccccc1O (stereo unspecified)", "mutagenic call": "inactive; negative"}
{"COMPOUND": "CCOCCOC(=O)/C=C/c1ccc(OC)cc1", "mutagenic call": "inactive; negative"}
{"COMPOUND": "OCC(CO)(CBr)CBr", "mutagenic call": "inactive; negative"}

For "Nc1cccc(Cl)c1" , write its mutagenic call.
inactive; negative

For "Oc1cccc2cccnc12" , write its mutagenic call.
active; positive

For "Cc1cc(-c2ccc(N/N=C3\C(=O)c4c(O)cc(S(=O)(=O)O)cc4C=C3S(=O)(=O)O)c(C)c2)ccc1N/N=C1\C(=O)c2c(O)cc(S(=O)(=O)O)cc2C=C1S(=O)(=O)O" , write its mutagenic call.
inactive; negative

For "O=[N+]([O-])c1ccc2cc3ccccc3cc2c1" , write its mutagenic call.
active; positive

###

Test system: CCRIS mutagenicity, Ames/micronucleus/aberration tests
Assay: CCRIS mutagenicity studies
Settings: Test System: AMES SALMONELLA TYPHIMURIUM; Strain/Indicator: TA100; Metabolic Activation: RAT, LIVER, S-9, AROCLOR 1254; Method: PREINCUBATION
Excerpt: The CCRIS database contains chemical records with carcinogenicity, mutagenicity, tumor promotion, and tumor inhibition test results. It was developed by the National Cancer Institute (NCI). Data are derived from studies cited in primary journals, current awareness tools, NCI reports, and other sources. Test results have been reviewed by experts in carcinogenesis and mutagenesis. CCRIS provides historical information from the years 1985 - 2011. It is no longer updated. […]
Activity calls are given as the source filed them. No rule for the calls is given here.
Your answer must be one of the following: active, inactive

Recorded test outcome, item "Nc1ccccc1"
inactive

Recorded test outcome, item "Cc1nccnc1C"
inactive

Recorded test outcome, item "c1cc2ccc3cccc4ccc(c1)c2c34"
inactive

###

test system: CCRIS mutagenicity, Ames/micronucleus/aberration tests; assay: CCRIS mutagenicity studies; conditions: Test System: AMES SALMONELLA TYPHIMURIUM; Strain/Indicator: TA1537; Metabolic Activation: RAT LIVER S-9, PHENOBARBITAL AND BETA-NAPHTHOFLAVONE; Method: PREINCUBATION
The source made the active and inactive calls. No rule for the calls is given here.
Your answer must be one of the following: true (1) for active, false (0) for inactive

Solved cases (6 shown):
{"MOLECULE": "CCC(C)c1ccccc1O (configuration not stated)", "CATEGORY_LABEL": "false (0)"}
{"MOLECULE": "NC(N)=S", "CATEGORY_LABEL": "false (0)"}
{"MOLECULE": "O=C(O)c1ccccc1O", "CATEGORY_LABEL": "false (0)"}
{"MOLECULE": "C1CCCNCC1", "CATEGORY_LABEL": "false (0)"}
{"MOLECULE": "OCCOCCOCCO", "CATEGORY_LABEL": "false (0)"}
{"MOLECULE": "NC(=Nc1ccccc1)Nc1ccccc1", "CATEGORY_LABEL": "false (0)"}

Recorded test outcome, item "CCOS(=O)(=O)OCC"
true (1)

Recorded test outcome, item "O=S(=O)(c1ccc(O)cc1)c1ccc(O)cc1"
false (0)

Recorded test outcome, item "O=C1C(Cl)=C(Cl)C(=O)c2ccccc21"
false (0)

Recorded test outcome, item "N=C(N)S(=O)O"
false (0)

Recorded test outcome, item "O.O.O.O.O.[Cd+2].[Cd+2].[Cl-].[Cl-].[Cl-].[Cl-]"
false (0)

Recorded test outcome, item "O=C(O)c1ccc2c(c1)C(=O)OC2=O"
false (0)
